Entries and their Kd
ASSAYED TARGET: T1, recombinant human WISP1/His (human, UniProt O95388 23-367)
T1 construct: also called hWISP1; recombinant human WISP1 protein; not shown: His tag
T1 sequence (looked up): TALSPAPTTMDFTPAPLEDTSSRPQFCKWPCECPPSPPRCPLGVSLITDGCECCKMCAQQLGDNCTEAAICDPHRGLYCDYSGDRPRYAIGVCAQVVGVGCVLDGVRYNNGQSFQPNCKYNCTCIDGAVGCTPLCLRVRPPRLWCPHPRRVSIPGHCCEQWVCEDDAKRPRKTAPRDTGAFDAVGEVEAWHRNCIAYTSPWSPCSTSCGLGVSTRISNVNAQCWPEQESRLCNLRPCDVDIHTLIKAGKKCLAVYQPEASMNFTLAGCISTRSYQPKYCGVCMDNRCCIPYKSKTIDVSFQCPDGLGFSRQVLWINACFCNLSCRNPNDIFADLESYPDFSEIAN
ASSAY INFO: SPR, IgG captured on anti-human Fc CM5 chip, human WISP1/His as analyte, 1:1 Langmuir fit
Experimental: This example illustrates binding affinities of various anti-WISP-1 antibodies disclosed herein. Briefly, Anti-human Fc antibody (GE, BR-1008-39) was immobilized on CM5 sensor chip to approximately 1000 RU using standard NHS/EDC coupling methodology. Antibodies (about 10 μg/ml) were captured for 60 s at a flow rate 10 μl/min. Recombinant human WISP1/His was serially diluted in running buffer (HBS-EP). All measurements were conducted with a flow rate of 30 μL/min. […]
# value in µM; strip the unit string

Here is how some binders turned out for Kd.
{"BINDER": "WIr2C11 (antibody, V domains shown, Tested as IgG (captured by anti-human Fc); also called Wlr2C11) VH: QVQLVESGGALVQPGGSLRLSCAASGFTFSDHWLSWVRQAPGKGLEWVSSISSSSRYIHYADSVKGRFTISRDNAKNSLYLQMNSLSAEDTAVYYCAREDTSMATNGFDVWGQGTMVTVSS VL: AIQLTQSPSSLSASVGDRVTITCRASQGIRNHLGWYQQKPGKAPKRLIYAASSLQSGVPSRFSGSGSGTEFTLTISGLQPEDFATYYCLQHNSYPFTFGQGTRLEIK", "Kd [µM]": 0.0817}
{"BINDER": "WIr2H3 (antibody, V domains shown, Tested as IgG (captured by anti-human Fc); also called Wlr2H3) VH: EVQLVQSGGGMVQPGGSLRLSCAASGFTFSDYYMDWVRQAPGQGLEWVGRIRHKAQGYTTEYAASVKGRFSISRDDSRSSLSLQMNSLKTEDTAVYYCAMVGGSRDWGQGTLVTVSS VL: QAGLTQPPSVSGAPGQRVTISCTGGSSNIGPGYAVHWYQQHPGRAPKLLIYTNNNRPSGVPDRFSGSRSGTSASLAITGLQAEDDAYYYCQSYDSSLSGSVFGGGTKLTVL", "Kd [µM]": 0.0959}
{"BINDER": "WIr2D6 (antibody, V domains shown, Tested as IgG (captured by anti-human Fc); also called Wlr2D6) VH: EVQLVQSGAEVKRSGASVKVSCKLSGDTLTDLSIHWVRQAPGKGLEWMGGFDFEDGEIVYGDKFKGRVTVTEDPSTDTAYMDLKRLTFEDTAIYYCATIKDIPGRYYFDFWGQGTLVTVSS VL: VIWMTQSPSSVSASVGDTVTITCRASQGIRSWLAWYQQKPGKAPKLLIYGASSLHSGVPSRFSGSGSGTYFTLTISSLQPEDFATYYCQQADSFPPWTFGQGTKVEIK", "Kd [µM]": 0.0539}

[Q] Note down Kd recorded for WIr2F6 (antibody, V domains shown, Tested as IgG (captured by anti-human Fc); also called Wlr2F6) VH: QMQLVQSGAEVKRPGASVKVSCKASGYSFTNFDINWVRQATGQGLEWMGWMDPNSGNSGSAPAFQGRVTMTRDTSIGTAYMELSGLTSEDTAVYYCARDDFYDSSGFDAWGQGTLVTVSS VL: QSVLTQPPSASGTPGQTVTVSCSGRSSNVGSNTVDWYQHLPGTAPKLLIYSSNRRPSGVPDRFSGSKSGTSASLAISGLQSEDEADYYCAAWDDSLNVYVFGTGTKLTVL
[A] 0.0101
